- System: Nitric oxide synthase, inducible (Mus musculus)
- Experiment description: Inhibition of iNOS-mediated nitric oxide production in LPS-stimulated mouse RAW 264.7 cells assessed as cell survival at 50 uM pretreated 15 mins before LPS challenge measured after 20 hrs relative to control
- Type: cell-based
compounds and their reported Survival
All answers are understood in %, so give the number only.

For orientation, consider the following solved cases.
[[record]]
compound = "COC(=O)[C@H]1Cc2c([nH]c3ccccc23)CN1Cc1ccc(OCc2ccccc2)cc1"
system = "Nitric oxide synthase, inducible (Mus musculus)"
quantitative_readout = 86.8

[[record]]
compound = "Cc1ccc(S(=O)(=O)N2Cc3[nH]c4ccccc4c3C[C@H]2C(=O)O)cc1"
system = "Nitric oxide synthase, inducible (Mus musculus)"
quantitative_readout = 85.5

[[record]]
compound = "C#CCN1Cc2[nH]c3ccccc3c2C[C@H]1C(=O)OC"
system = "Nitric oxide synthase, inducible (Mus musculus)"
quantitative_readout = 84.4

[[record]]
compound = "Cc1ccc(S(=O)(=O)N2Cc3[nH]c4ccccc4c3C[C@@H]2C(=O)O)cc1"
system = "Nitric oxide synthase, inducible (Mus musculus)"
quantitative_readout = 102

[[record]]
compound = "COC(=O)[C@H]1Cc2c([nH]c3ccccc23)CN1CC1CC1"
system = "Nitric oxide synthase, inducible (Mus musculus)"
quantitative_readout = 124

[[record]]
compound = "O=C(O)[C@H]1Cc2c([nH]c3ccccc23)CN1CC1CC1"
system = "Nitric oxide synthase, inducible (Mus musculus)"
quantitative_readout = 130


Please tell me: Survival of `COC(=O)[C@H]1Cc2c([nH]c3ccccc23)CN1Cc1ccc(O)cc1` , system Nitric oxide synthase, inducible (Mus musculus)?
87.3

Reported Survival for Nitric oxide synthase, inducible (Mus musculus), given `COC(=O)[C@H]1Cc2c([nH]c3ccccc23)CN1S(=O)(=O)c1ccc(C)cc1` ?
91.4

Quick check: Survival on Nitric oxide synthase, inducible (Mus musculus), item `O=C(O)[C@@H]1Cc2c([nH]c3ccccc23)CN1Cc1ccccc1` ?
119

So what Survival did `COC(=O)[C@H]1Cc2c([nH]c3ccccc23)CN1C(=O)NCCc1ccccc1` get with Nitric oxide synthase, inducible (Mus musculus)?
66.1
